# TARGET UNDER TEST: Neu5Ac(a2-3)Gal(b1-4)[Fuc(a1-3)]GlcNAc(b1-3)Gal
# METHOD: glycan array binding signal (z-score within array); higher = stronger binding
# CONDITION SUMMARY: glycan notation: IUPAC condensed, linker removed
Many of the other results were omitted from the sample, so the strongest signals are more common in it than they were.
PROPERTY NAME: glycan array binding signal (z-score)
Form field (numeric): enter value without unit.

stdin: Query: glycan array binding signal (z-score); subject: FBG5 (Homo sapiens), Q8NI29 (protein) MGASVSRGRAARVPAPEPEPEEALDLSQLPPELLLVVLSHVPPRTLLGRCRQVCRGWRALVDGQALWLLILARDHGATGRALLHLARSCQSPARNARPCPLGRFCARRPIGRNLIRNPCGQEGLRKWMVQHGGDGWVVEENRTTVPGAPSQTCFVTSFSWCCKKQVLDLEEEGLWPELLDSGRIEICVSDWWGARHDSGCMYRLLVQLLDANQTVLDKFSAVPDPIPQWNNNACLHVTHVFSNIKMGVRFVSFEHRGQDTQFWAGHYGARVTNSSVIVRVRLS
stdout: -0.244

stdin: What about this binder? TIM-1 (Mus musculus), AAL35774 (protein) MNQIQVFISGLILLLPGAVDSYVEVKGVVGHPVTLPCTYSTYRGITTTCWGRGQCPSSACQNTLIWTNGHRVTYQKSSRYNLKGHISEGDVSLTIENSVESDSGLYCCRVEIPGWFNDQKVTFSLQVKPEIPTRPPTRPTTTRPTATGRPTTISTRSTHVPTSIRVSTSTPPTSTHTWTHKPEPTTFCPHETTAEVTGIPSHTPTDWNGTVTSSGDTWSNHTEAIPPGKPQKNPTKGFYVGICIAALLLLLLVSTVAITRYILMKRKSASLSVVAFRVSKIEALQNAAVVHSRAEDNIYIVEDRP
stdout: -0.414

stdin: What about this binder? OrysaEULS2 (Oryza sativa) (protein) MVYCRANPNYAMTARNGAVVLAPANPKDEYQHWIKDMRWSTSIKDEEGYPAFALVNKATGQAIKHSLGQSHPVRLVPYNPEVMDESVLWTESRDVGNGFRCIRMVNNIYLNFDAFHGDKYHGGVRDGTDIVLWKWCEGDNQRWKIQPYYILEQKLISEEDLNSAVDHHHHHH
stdout: -0.179
